biological target: VHR (Homo sapiens, UniProt P51452); construct: made in house; host or cells: E. coli; assay: Tyrosine phosphatase selectivity (pNPP substrate), VHR; format: biochemical; conditions: selectivity ratio VHR over SHP2
Sequence (P51452 whole entry, species assumed): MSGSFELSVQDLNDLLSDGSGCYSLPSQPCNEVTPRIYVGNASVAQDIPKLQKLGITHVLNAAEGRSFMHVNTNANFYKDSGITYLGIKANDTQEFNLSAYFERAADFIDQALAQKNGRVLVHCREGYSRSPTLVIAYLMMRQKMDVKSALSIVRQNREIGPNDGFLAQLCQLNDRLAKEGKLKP
Provide the recorded IC50PTP/IC50SHP2 VHR for the entries that follow.
Would you mind answering with just the numeric figure?

For reference, reported IC50PTP/IC50SHP2 VHR for O=C(Nc1ccc(-c2ccsc2)cc1)C(=O)Nc1ccc(-c2cc3cc(F)c(-c4nnn[nH]4)nc3n2C2CCC2)cc1 stands at 381.5

The recorded IC50PTP/IC50SHP2 VHR for entry O=C(Nc1ccc(-c2cc3cc(F)c(-c4nnn[nH]4)cc3n2C2CCC2)cc1)C(=O)Nc1ccc(N2CCOCC2)cc1 equals 18.2

Looking up O=C(Nc1ccc(-c2ccsc2)cc1)C(=O)Nc1ccc(-c2cc3ccc(-c4nnn[nH]4)nc3n2C2CCC2)cc1 , I found its IC50PTP/IC50SHP2 VHR recorded as 50.8

Recorded result, O=C(Nc1ccc(-c2ccsc2)cc1)C(=O)Nc1ccc(-c2cc3cc(F)c(-c4nnn[nH]4)cc3n2C2CCC2)cc1 , IC50PTP/IC50SHP2 VHR: 155.2

The recorded IC50PTP/IC50SHP2 VHR for Cn1c(-c2cccc(NC(=O)C(=O)Nc3ccc(-c4ccsc4)cc3)c2)c(I)c2cc(C(=O)O)c(O)cc21 [Example 11a-1, reference compound] is 29.6

The recorded IC50PTP/IC50SHP2 VHR for O=C(Nc1ccc(-c2cc3cc(F)c(-c4nnn[nH]4)cc3n2C2CCC2)cc1)C(=O)Nc1ccc(N2CCC3(CCOC3)CC2)cc1 is 130
